Origin of the recorded values: ChEMBL document CHEMBL5108066

# assay-comment: Inhibition of Cryptococcus neoformans farnesyltransferase assessed as inhibition of farnesylation of dansyl-GCVVM peptide using fluorescent peptide dansyl-GCVVM and 1uM farnesyl diphosphate as substrate by fluorescence assay
assay-readout: IC50 (µM)
// note: answer is a bare numeric in µM

CCCCC[C@H]1CN(c2cccc(OC(F)(F)F)c2)C(=O)CN1Cc1cncn1Cc1ccc(Br)cc1: 0.16

query: Param item = CCCC[C@H]1CN(c2cccc(Cl)c2)C(=O)CN1Cc1cncn1Cc1ccc(C#N)cc1 ; retrieve measured IC50.
result: 0.1

query: // same read-out, input: N#Cc1ccc(Cn2cncc2CN2CCN(c3cccc(OC(F)(F)F)c3)C(=O)C2)cc1F
result: 0.12
